Property: pIC50; scope: individual compounds
target: Recombinant His-tagged NAMPT (Homo sapiens, UniProt P43490); construct: His; host or cells: E. coli; assay: Biochemical inhibition assay: NAMPT enzymatic reaction, NMN quantified by mass spectrometry; conditions: 33 nM NAMPT, 1 μM NAM, 100 μM PRPP, 2.5 mM ATP, 30 minutes at room temperature; read-out: Biochem IC50
Sequence (P43490 whole entry): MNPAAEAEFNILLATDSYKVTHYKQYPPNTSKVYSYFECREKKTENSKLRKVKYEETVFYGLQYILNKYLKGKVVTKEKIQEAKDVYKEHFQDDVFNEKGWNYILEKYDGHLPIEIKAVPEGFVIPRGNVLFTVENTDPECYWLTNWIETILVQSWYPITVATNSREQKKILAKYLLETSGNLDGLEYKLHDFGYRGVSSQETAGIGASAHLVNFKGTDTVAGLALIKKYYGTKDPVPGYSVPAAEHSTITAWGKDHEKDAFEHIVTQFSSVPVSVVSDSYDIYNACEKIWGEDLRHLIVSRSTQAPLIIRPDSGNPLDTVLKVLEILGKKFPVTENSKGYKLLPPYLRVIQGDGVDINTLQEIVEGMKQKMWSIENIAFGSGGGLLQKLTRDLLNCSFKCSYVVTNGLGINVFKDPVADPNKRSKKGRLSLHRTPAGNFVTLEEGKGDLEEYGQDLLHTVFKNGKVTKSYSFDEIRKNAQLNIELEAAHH
Interpret pIC50 as the negative base-10 log of the concentration measured in mol/L.

Previously resolved entries follow.
>>> print(df.to_string())
                         structure_notation  test_result
0  COc1ccc(C(=O)N2CCC(CCCCNC(=O)c3cc4ccncc4s3)CC2)cc1F         7.15
1  O=C(NCCCCC1CCN(C(=O)c2ccc3nccn3c2)CC1)c1cc2cnccc2[nH]1         8.11
2  Cc1nc(CC(=O)N2CCC(CCCCNC(=O)c3cc4ccncc4s3)CC2)cs1         7.87
3  CCOc1cccc(C(=O)N2CCC(CCCCNC(=O)c3cc4ccncc4s3)CC2)c1         7.41
4  O=C(NCCCCC1CCN(C(=O)c2ccc3[nH]ccc3c2)CC1)c1cc2cnccc2[nH]1         7.40
5  O=C(NCCCCC1CCN(S(=O)(=O)c2ccc(F)c(F)c2)CC1)c1cc2cnccc2[nH]1         7.46

Respond only with pIC50 recorded for `O=C(NCCCCN1CCN(C(=O)c2cccc(Cl)c2)CC1)c1cc2cnccc2[nH]1`
6.97

Give the measured pIC50 for `O=C(NCCCCC1CCN(C(=O)c2csc(-c3ccccc3)n2)CC1)c1cc2ccncc2s1`
7.88
